# Test system: MEL-JUSO
# testName: Cytotoxicity against human MEL-JUSO cells incubated for 2 hrs by cell titre blue viability assay
# Assay type: functional, cell-based
observable: pIC50
Answers are plain numbers, as −log10 of the molar value.

CC[C@@]1(O)C[C@H](O[C@H]2C[C@H](N(C)C)[C@H](O)[C@H](C)O2)c2c(O)c3c(c(O)c2[C@H]1C(=O)OC)C(=O)c1cccc(O)c1C3=O; 6.08
COc1cccc2c1C(=O)c1c(O)c3c(c(O)c1C2=O)C[C@@](O)(C(=O)CO)C[C@@H]3O[C@H]1C[C@H](N)[C@H](O)[C@H](C)O1; 6.28
CC[C@]1(O)Cc2c(O)c3c(c(O)c2[C@@H](O[C@H]2C[C@H](N)[C@H](O)[C@H](C)O2)C1)C(=O)c1c(OC)cccc1C3=O; 6.43
CC[C@]1(O)Cc2c(O)c3c(c(O)c2[C@@H](O[C@H]2C[C@H](N(C)C)[C@H](O)[C@H](C)O2)C1)C(=O)c1c(OC)cccc1C3=O; 5.74

Turning now to a further record.
Query string: Give recorded pIC50. COc1cccc2c1C(=O)c1c(O)c3c(c(O)c1C2=O)C[C@@](O)(CCO)C[C@@H]3O[C@H]1C[C@H](N(C)C)[C@H](O)[C@H](C)O1
Result string: 5.54
